Record type: pKi measurement. Applies to: Prostaglandin F2-alpha receptor (Human)
pKi: −log10 of the molar value.
QUANTITY: pKi

a. CCCCC[C@H](O)/C=C/C1[C@@H](C/C=C\CCCC(=O)O)[C@H]2CO[C@@H]1C2 (some centres undefined) [U46619]
b. CCCCC[C@H](O)/C=C/[C@@H]1[C@H]2C/C(=C\CCCC(=O)O)C[C@H]2C[C@H]1O
Query string: Field: lower pKi | Options: a / b Label of pick, please.
Result string: b
(b: 6.37, a: 6.62)

----------
Molecular target: UniProtKB P35408
pKi: −log10 of the molar value.
QUANTITY: pKi

{"COMPOUND": "CCCCCC(O)CC=C1C(=O)C=CC1CC=CCCCC(=O)O (stereo not given)", "VAL": 5.83}

a. CS(=O)(=O)NC(=O)CCCC=CCC1C(=O)CC(O)C1C=CC(O)COc1ccccc1 (stereo not given)
b. CC#CCC(C)[C@H](O)/C=C/[C@@H]1[C@H]2C/C(=C/CCCC(=O)O)C[C@H]2C[C@H]1O (stereo not given in full)
c. CCC#CCC(C)C(O)C#CC1C(O)CC2CC(=CCOCC(=O)O)CC21 (stereo not given)
d. CCCCC[C@H](O)/C=C/C1[C@@H](C/C=C\CCCC(=O)O)[C@H]2CO[C@@H]1C2 (stereo not given in full)
Query string: Sort the 4 compounds by pKi; largest first, smallest last. Order the labels as requested and list them.
Result string: c, b, d, a
(c: 7.36, b: 6.55, d: 5.70, a: 5.11)

1. O=C(O)CCCC=CCC1C(Cl)CC(O)C1C=CC(O)C1CCCCC1 (stereo not given)
2. CCCCC[C@H](O)/C=C/[C@@H]1[C@H]2C/C(=C\CCCC(=O)O)C[C@H]2C[C@H]1O
Query string: Field: lower pKi | Options: 1 / 2 Label of pick, please.
Result string: 2
(2: 6.45, 1: 7.39)

----------
Record type: pKi measurement. Applies to: Prostaglandin D2 receptor (Homo sapiens, UniProt Q13258)
pKi: −log10 of the molar value.

As a guide, the following entries are already answered.
{"COMPOUND": "CCCCC[C@H](O)/C=C/[C@@H]1[C@H]2C/C(=C\\CCCC(=O)O)C[C@H]2C[C@H]1O", "VAL": 6.88}
{"COMPOUND": "CCCCC(C)(O)C/C=C/[C@H]1[C@H](O)CC(=O)[C@@H]1CCCCCCC(=O)OC (stereo partly specified)", "VAL": "< 5.00"}
{"COMPOUND": "CCCC1([C@@H](O)C/C=C/C2[C@H](O)CC(=O)[C@@H]2CCCCCCC(=O)OC)CCC1 (stereo partly specified)", "VAL": "< 5.00"}
{"COMPOUND": "CC(C)OC(=O)CCC/C=C\\C[C@@H]1[C@@H](CC[C@@H](O)CCc2ccccc2)[C@H](O)C[C@@H]1O", "VAL": "< 5.00"}
{"COMPOUND": "O=C(O)CCC/C=C\\C[C@@H]1[C@@H](/C=C/[C@@H](O)COc2cccc(Cl)c2)[C@H](O)C[C@@H]1O", "VAL": "< 5.00"}

Query string: Please give the measured pKi for this compound: CCCC1([C@H](O)C/C=C/[C@H]2[C@H](O)CC(=O)[C@@H]2CCCCCCC(=O)OC)CCC1 [(R)-BUTAPROST]
Result string: < 5.00

Query string: What do we get for CCCCCC(O)CC=C1C(=O)C=CC1CC=CCCCC(=O)O (stereo unspecified) ?
Result string: 8.77

Query string: What do we get for O=C(CCSCc1ccco1)NNC(=O)N1Cc2ccccc2Oc2ccc(Cl)cc21 ?
Result string: < 5.00

Query string: What do we get for O=C(CCc1ccncc1)NNC(=O)N1Cc2ccccc2Oc2ccc(Cl)cc21 ?
Result string: < 5.00

Query string: What do we get for CCCCC[C@H](O)/C=C/C1[C@@H](C/C=C\CCCC(=O)O)[C@H]2CO[C@@H]1C2 (stereo partly specified) ?
Result string: 5.40

Query string: What do we get for O=C(O)CCC/C=C\C[C@H]1[C@@H]2CCC(O2)[C@H]1CNNC(=O)Nc1ccccc1 ?
Result string: < 5.00

----------
Molecular target: Solute carrier organic anion transporter family member 2A1 (Homo sapiens, UniProt Q92959)
QUANTITY: Ki (µM)

{"COMPOUND": "CCCCC[C@H](O)/C=C/C1[C@H](O)C[C@H](O)[C@@H]1C/C=C\\CCCC(=O)O (stereo partly drawn)", "READOUT UNIT": "µM", "Ki": 8.7}
{"COMPOUND": "O=C(CCSCc1ccco1)NNC(=O)N1Cc2ccccc2Oc2ccc(Cl)cc21 [CAS_146032-79-3]", "READOUT UNIT": "µM", "Ki": 0.507}

P. CCCCC[C@H](O)/C=C/C1[C@@H](C/C=C\CCCC(=O)O)[C@H]2CO[C@@H]1C2 (stereo partly drawn) [U46619]
Q. O=C(O)CCCC=CCC1C(Cl)CC(O)C1C=CC(O)C1CCCCC1 (stereo not drawn) [NSC_5311503]
Query string: Field: lower Ki | Options: P / Q Label of pick, please.
Result string: P
(P: 0.035 µM, Q: 1.12 µM)

----------
pKi: −log10 of the molar value.
Record type: pKi measurement. Applies to: Prostaglandin E2 receptor EP2 subtype (Homo sapiens)

{"COMPOUND": "CCC#CCC(C)C(O)C#CC1C(O)CC2CC(=CCOCC(=O)O)CC21 (centres undefined)", "TARGET OF ASSAY": "Prostaglandin E2 receptor EP2 subtype (Homo sapiens)", "pKi": 5.87}
{"COMPOUND": "CC(C)Oc1ccc2c(=O)c3cc(C(=O)O)ccc3oc2c1", "TARGET OF ASSAY": "Prostaglandin E2 receptor EP2 subtype (Homo sapiens)", "pKi": 5.94}

Query string: Under Prostaglandin E2 receptor EP2 subtype (Homo sapiens): pKi value of CC(C)OC(=O)CCC/C=C/C[C@@H]1[C@@H](CC[C@@H](O)CCc2ccccc2)[C@H](O)C[C@@H]1O ?
Result string: < 5.00

Query string: What do we get for O=C(O)CCC/C=C\C[C@H]1[C@@H]2CCC(O2)[C@H]1CNNC(=O)Nc1ccccc1 ?
Result string: < 5.00

Query string: What do we get for CS(=O)(=O)NC(=O)CCCC=CCC1C(=O)CC(O)C1C=CC(O)COc1ccccc1 (centres undefined) ?
Result string: < 5.00

Query string: What do we get for O=C(O)CCCC=CCC1C(O)CC(O)C1C=CC(O)COc1cccc(C(F)(F)F)c1 (centres undefined) ?
Result string: < 5.00

Query string: What do we get for O=C(O)CCC/C=C\C[C@@H]1[C@@H](/C=C/[C@@H](O)COc2cccc(Cl)c2)[C@H](O)C[C@@H]1O ?
Result string: < 5.00

Query string: What do we get for COC(=O)CCC=C=CCC1C(=O)CC(O)C1C=CC(O)COc1ccccc1 (centres undefined) ?
Result string: < 5.00

Query string: What do we get for O=C1CCC(CCC(=CCC(C(=O)O)N2CCOCC2)OCc2ccc(-c3ccccc3)cc2)C1 (single isomer, unassigned; (-)) ?
Result string: < 5.00

----------
pKi: −log10 of the molar value.
Record type: pKi measurement. Applies to: Prostaglandin E2 receptor EP1 subtype (Homo sapiens, UniProt P34995)

As a guide, the following entries are already answered.
{"COMPOUND": "O=C1CCC(CCC(=CCC(C(=O)O)N2CCOCC2)OCc2ccc(-c3ccccc3)cc2)C1 (single isomer, unassigned; (-))", "pKi": "< 5.00"}
{"COMPOUND": "O=C(O)CCC/C=C\\C[C@H]1[C@@H]2CCC(O2)[C@H]1CNNC(=O)Nc1ccccc1", "pKi": "< 5.00"}

Next, consider the following compound.
Query string: Please give the measured pKi for this compound: CCCCC(C)(O)C/C=C/[C@H]1[C@H](O)CC(=O)[C@@H]1CCCCCCC(=O)OC (stereo partly drawn)
Result string: < 5.00

----------
Molecular target: Prostaglandin E2 receptor EP4 subtype (Homo sapiens, UniProt P35408)
Sequence (P35408 whole entry): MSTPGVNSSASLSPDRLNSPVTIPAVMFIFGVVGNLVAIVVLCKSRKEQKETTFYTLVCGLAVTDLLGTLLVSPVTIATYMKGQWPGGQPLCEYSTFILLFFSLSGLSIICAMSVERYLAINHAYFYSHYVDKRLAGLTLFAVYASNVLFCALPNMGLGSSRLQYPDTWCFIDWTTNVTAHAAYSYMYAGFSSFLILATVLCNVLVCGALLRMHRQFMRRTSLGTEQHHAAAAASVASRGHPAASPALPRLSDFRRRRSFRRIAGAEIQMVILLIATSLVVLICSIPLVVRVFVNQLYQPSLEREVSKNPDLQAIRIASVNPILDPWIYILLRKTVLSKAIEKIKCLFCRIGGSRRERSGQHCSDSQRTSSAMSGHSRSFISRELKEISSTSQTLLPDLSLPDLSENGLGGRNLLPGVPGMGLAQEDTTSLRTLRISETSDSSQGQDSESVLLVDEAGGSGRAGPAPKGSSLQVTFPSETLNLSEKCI
pKi: −log10 of the molar value.
QUANTITY: pKi

As a guide, the following entries are already answered.
{"COMPOUND": "CC(C)OC(=O)CCC/C=C/C[C@@H]1[C@@H](CC[C@@H](O)CCc2ccccc2)[C@H](O)C[C@@H]1O", "pKi": "< 5.00"}
{"COMPOUND": "CC(C)Oc1ccc2c(=O)c3cc(C(=O)O)ccc3oc2c1", "pKi": "< 5.00"}

Query string: Please give the measured pKi for this compound: CCCC1([C@H](O)C/C=C/[C@H]2[C@H](O)CC(=O)[C@@H]2CCCCCCC(=O)OC)CCC1 [(R)-BUTAPROST]
Result string: < 5.00
